# Study System: Voltage-dependent N-type calcium channel subunit alpha-1B (Homo sapiens, UniProt Q00975)
# Sequence (Q00975 whole entry): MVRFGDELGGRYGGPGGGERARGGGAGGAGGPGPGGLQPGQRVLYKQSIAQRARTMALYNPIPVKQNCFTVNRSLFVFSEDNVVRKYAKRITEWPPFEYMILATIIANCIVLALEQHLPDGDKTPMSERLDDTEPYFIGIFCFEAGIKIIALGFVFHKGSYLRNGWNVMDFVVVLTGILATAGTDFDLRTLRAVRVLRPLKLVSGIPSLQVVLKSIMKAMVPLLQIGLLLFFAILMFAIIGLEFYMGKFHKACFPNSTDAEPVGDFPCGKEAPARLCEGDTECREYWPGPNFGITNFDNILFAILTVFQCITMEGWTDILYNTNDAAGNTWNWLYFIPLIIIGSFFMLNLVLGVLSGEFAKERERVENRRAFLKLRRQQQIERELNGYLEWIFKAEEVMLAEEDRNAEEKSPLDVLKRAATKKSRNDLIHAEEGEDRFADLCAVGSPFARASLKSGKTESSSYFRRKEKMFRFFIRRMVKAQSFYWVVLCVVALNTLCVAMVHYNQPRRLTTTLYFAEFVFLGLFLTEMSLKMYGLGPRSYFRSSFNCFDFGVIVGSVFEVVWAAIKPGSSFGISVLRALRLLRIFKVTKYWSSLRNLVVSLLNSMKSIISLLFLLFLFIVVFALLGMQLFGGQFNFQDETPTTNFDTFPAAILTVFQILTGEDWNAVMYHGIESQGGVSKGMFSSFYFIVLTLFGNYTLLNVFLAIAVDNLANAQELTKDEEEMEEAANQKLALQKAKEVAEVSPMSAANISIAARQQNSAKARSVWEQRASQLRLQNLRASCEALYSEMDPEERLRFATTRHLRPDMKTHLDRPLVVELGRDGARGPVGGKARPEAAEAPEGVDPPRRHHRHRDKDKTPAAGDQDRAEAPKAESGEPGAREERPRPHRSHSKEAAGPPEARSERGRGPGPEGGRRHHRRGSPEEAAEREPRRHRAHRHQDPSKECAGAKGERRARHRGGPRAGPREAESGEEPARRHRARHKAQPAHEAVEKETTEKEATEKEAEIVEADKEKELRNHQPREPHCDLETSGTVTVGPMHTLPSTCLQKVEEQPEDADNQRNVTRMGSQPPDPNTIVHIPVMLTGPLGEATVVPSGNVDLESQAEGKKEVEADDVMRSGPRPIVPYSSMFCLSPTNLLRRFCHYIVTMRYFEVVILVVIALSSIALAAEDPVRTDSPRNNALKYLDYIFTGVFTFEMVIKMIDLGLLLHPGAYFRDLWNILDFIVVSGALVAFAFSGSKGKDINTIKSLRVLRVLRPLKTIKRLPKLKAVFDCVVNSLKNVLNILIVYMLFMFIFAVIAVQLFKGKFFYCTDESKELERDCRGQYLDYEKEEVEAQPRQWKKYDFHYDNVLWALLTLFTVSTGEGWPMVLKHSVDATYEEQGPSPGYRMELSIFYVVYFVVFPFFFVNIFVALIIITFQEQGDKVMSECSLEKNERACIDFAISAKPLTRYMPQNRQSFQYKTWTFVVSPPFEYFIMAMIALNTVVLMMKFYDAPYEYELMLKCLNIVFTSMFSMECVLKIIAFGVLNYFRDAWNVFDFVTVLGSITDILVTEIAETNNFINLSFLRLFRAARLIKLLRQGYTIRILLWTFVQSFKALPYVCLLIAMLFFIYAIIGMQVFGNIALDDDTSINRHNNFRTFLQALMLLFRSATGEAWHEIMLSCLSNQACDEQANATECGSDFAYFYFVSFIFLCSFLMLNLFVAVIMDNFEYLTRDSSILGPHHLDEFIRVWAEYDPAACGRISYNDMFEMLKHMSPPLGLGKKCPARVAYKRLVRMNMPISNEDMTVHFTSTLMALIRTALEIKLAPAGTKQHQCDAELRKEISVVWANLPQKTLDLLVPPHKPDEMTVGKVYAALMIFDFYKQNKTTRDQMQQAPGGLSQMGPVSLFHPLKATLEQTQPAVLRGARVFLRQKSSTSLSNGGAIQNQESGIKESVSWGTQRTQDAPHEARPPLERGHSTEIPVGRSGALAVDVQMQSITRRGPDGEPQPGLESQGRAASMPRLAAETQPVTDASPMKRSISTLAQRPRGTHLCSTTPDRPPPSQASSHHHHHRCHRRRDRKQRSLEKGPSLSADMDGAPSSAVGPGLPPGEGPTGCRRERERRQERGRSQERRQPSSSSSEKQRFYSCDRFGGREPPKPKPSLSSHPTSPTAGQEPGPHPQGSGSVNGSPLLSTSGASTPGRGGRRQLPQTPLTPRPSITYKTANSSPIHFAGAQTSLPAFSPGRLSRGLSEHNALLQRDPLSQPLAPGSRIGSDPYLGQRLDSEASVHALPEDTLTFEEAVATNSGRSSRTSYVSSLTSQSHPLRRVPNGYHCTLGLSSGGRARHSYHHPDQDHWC
# Assay Name: Inhibition of N-type Cav2.2 channel (unknown origin) by FLIPR assay
# Settings: read-out: IC50
pIC50: −log10 of the molar value.
Criterion: pIC50 meeting or surpassing 6. Met: rule met. Not met: rule not met.

Q) Kindly determine if pIC50 recorded for CN[C@@H](CC(C)C)C(=O)N[C@@H]1CC[C@H]2CN(S(=O)(=O)c3cccc(C(F)(F)F)c3)C[C@H]21 is above or exactly 6.
A) rule met

Q) Is the recorded value of pIC50 equal to or greater than 6 for this compound? CN[C@@H](CC(C)C)C(=O)N[C@H]1CC[C@@H]2CN(c3ccc(OC(F)(F)F)cc3)C[C@@H]21
A) rule not met

Q) Does pIC50 meet or surpass 6 for CCN[C@@H](CC(C)(C)C)C(=O)N[C@H]1CC[C@@H]2CN(S(=O)(=O)c3ccc(C(F)(F)F)cc3)C[C@@H]21 ?
A) rule met

* * *

# Assay Name: Ratio of drug level brain to plasma in rat at 3 umol/kg, ip after 30 mins
# Type: ADME, organism-based
# Settings: read-out: BPR
Readout Name: Kp at 0.5 h
In your answer, state the number alone without any accompanying words.

Q) Request the reported Kp at 0.5 h associated with CN[C@@H](CC(C)C)C(=O)N[C@H]1CC[C@@H]2CN(c3ccc(C(F)(F)F)cc3)C[C@@H]21
A) 16.5

* * *

# Assay Name: Oral bioavailability in rat at 5 umol/kg
# Assay type: ADME, organism-based
# Settings: in vivo
Readout Name: bioavailability (%)
# unit: % | format: bare number

Q) So what does the record say about bioavailability for CN[C@@H](CC(C)C)C(=O)N[C@H]1CC[C@@H]2CN(S(=O)(=O)c3ccc(C(F)(F)F)cc3)C[C@@H]21 ?
A) 50

Q) What does the record list as bioavailability for CN[C@@H](CC(C)C)C(=O)N[C@H]1CC[C@@H]2CN(c3ccc(C(F)(F)F)cc3)C[C@@H]21 ?
A) 83

Q) Value lookup for bioavailability; key = CN[C@@H](CC(C)C)C(=O)N[C@@H]1CC[C@H]2CN(S(=O)(=O)c3ccc(C(F)(F)F)cc3)C[C@H]21
A) 21

* * *

# Assay Name: Ratio of drug level brain to plasma in po dosed rat after 60 mins
# Type: ADME, organism-based
# Settings: read-out: BPR
Readout Name: Kp at 1 h
Number only, no unit.

Q) Given the entry CC(C)N[C@@H](CC(C)(C)C)C(=O)N[C@H]1CC[C@@H]2CN(S(=O)(=O)c3ccc(C(F)(F)F)cc3)C[C@@H]21 , report its measured Kp at 1 h.
A) 0.9

* * *

# Assay Name: Metabolic stability in rat liver microsomes assessed as compound remaining after 30 mins
# Type: ADME, Microsome
# Settings: read-out: Stability
Readout Name: remaining at 0.5 h

Q) So what's the measured remaining at 0.5 h for this one? CC(C)(C)[C@H](N)C(=O)N[C@H]1CC[C@@H]2CN(S(=O)(=O)c3ccc(C(F)(F)F)cc3)C[C@@H]21
A) 77.1%

Q) Which value of remaining at 0.5 h has been reported for CN[C@@H](CC(C)C)C(=O)N[C@H]1CC[C@@H]2CN(c3cccc(C(F)(F)F)c3)C[C@@H]21 in the records?
A) 81%

Q) For the compound shown here, CN[C@@H](CC(C)(C)C)C(=O)N[C@H]1CC[C@@H]2CN(S(=O)(=O)c3ccc(C(F)(F)F)cc3)C[C@@H]21 , give the reported remaining at 0.5 h.
A) 66.5%

Q) Look at this compound and give its reported remaining at 0.5 h. CC(C)C[C@H](N)C(=O)N[C@@H]1CC[C@H]2CN(S(=O)(=O)c3cccc(C(F)(F)F)c3)C[C@H]21
A) 10.3%

Q) I have this compound here, CCN[C@@H](CC(C)(C)C)C(=O)N[C@H]1CC[C@@H]2CN(S(=O)(=O)c3ccc(C(F)(F)F)cc3)C[C@@H]21 , and I need its recorded remaining at 0.5 h.
A) 89.2%
